Measured microsomal CLint of individual entries
assay: Intrinsic clearance in rat liver microsomes assessed per mg of protein; format: ADME, Microsome
Express the result in µL/min/mg but write the number alone.

Reference set (3 entries):
Cc1ccc(CC(C)(C)NC[C@@H](O)COc2cc(C3CC4CC3C3C(C(=O)O)C43)ccc2C#N)cc1F (mixture of isomers) :: 27
CC(C)(CC1Cc2ccccc2C1)NC[C@@H](O)COc1cc(CCC(=O)O)cc(F)c1F [RONACALERET] :: 90
Cc1ccc(CC(C)(C)NC[C@@H](O)COc2cccc(C3CC4CC3C3C(C(=O)O)C43)c2)cc1F (mixture of isomers) :: 38

Continue with the compound presented below.
QUERY: Endpoint output: microsomal CLint of C[C@@H](OC[C@H](O)CNC(C)(C)CC1Cc2ccccc2C1)c1ccccc1C1CC2CC1C1C(C(=O)O)C21 (mixture of isomers) . Value?
RESULT: 38

###

// reported Vd for each item listed
test: Volume of distribution in Sprague-Dawley rat at 1 mg/kg, iv; type: ADME, organism-based; design: dose 1 mg/kg, route intravenous; conditions: in vivo
# output: bare number, implied unit L/kg

CC(C)(CC1Cc2ccccc2C1)NC[C@@H](O)COc1cc(C2CC3CC2C2C(C(=O)O)C32)ccc1C#N (mixture of isomers) :: 5

Shift focus to the following entry.
QUERY: Need Vd, item Cc1ccc(CC(C)(C)NC[C@@H](O)COc2cc(C3CC4CC3C3C(C(=O)O)C43)ccc2C#N)cc1F (mixture of isomers)
RESULT: 5

###

assay: Cmax in Sprague-Dawley rat at 10 mg/kg, po; format: ADME, organism-based; parameters: dose 10 mg/kg, route oral; settings: in vivo
RECORDED ENDPOINT: Cmax

Cc1ccc(CC(C)(C)NC[C@@H](O)CO[C@H](C)c2ccccc2C2CC3CC2C2C(C(=O)O)C32)cc1F (mixture of isomers) :: 1000 nM

Attention now shifts to the item below.
QUERY: Return reported Cmax; argument: `CC(C)(CC1Cc2ccccc2C1)NC[C@@H](O)COc1cc(CCC(=O)O)cc(F)c1F`
RESULT: 300 nM

###

test: Half life in Sprague-Dawley rat at 1 mg/kg, iv; type: ADME, organism-based; design: dose 1 mg/kg, route intravenous; settings: in vivo
RECORDED ENDPOINT: half-life
Field: value (include unit after the number)

Cc1ccc(CC(C)(C)NC[C@@H](O)COc2cc(C3CC4CC3C3C(C(=O)O)C43)ccc2C#N)cc1F (mixture of isomers) :: 1.5 h

Next:
QUERY: Please look up its half-life: CC(C)(CC1Cc2ccccc2C1)NC[C@@H](O)COc1cc(C2CC3CC2C2C(C(=O)O)C32)ccc1C#N (mixture of isomers)
RESULT: 1.5 h

###

experiment: Intrinsic clearance in human liver microsomes assessed per mg of protein; type: ADME, Microsome
Label rule, in plain words: microsomal CLint of 20 µL/min/mg and up is class 1, under 20 µL/min/mg is class 0.

Cc1ccc(CC(C)(C)NC[C@@H](O)COc2cc(C3CC4CC3C3C(C(=O)O)C43)ccc2C#N)cc1F (mixture of isomers) :: class 0
CC(C)(CC1Cc2ccccc2C1)NC[C@@H](O)COc1cc(C2CC3CC2C2C(C(=O)O)C32)ccc1C#N (mixture of isomers) :: class 0
CC(C)(Cc1ccc2ccccc2c1)NC[C@@H](O)COc1cccc(Cl)c1C#N :: class 1

QUERY: Determine whether this compound has microsomal CLint no lower than 20 µL/min/mg: CC(C)(CC1Cc2ccccc2C1)NC[C@@H](O)COc1cc(C2CC3CC2C2C(C(=O)O)C32)cc(F)c1F (mixture of isomers)
RESULT: class 0

###

assay: Lipophilicity, log D of the compound; assay type: physicochemical; details: octanol/water
RECORDED ENDPOINT: logD

Here's what some known entries look like.
Cc1ccc(CC(C)(C)NC[C@@H](O)COc2cc(C3CC4CC3C3C(C(=O)O)C43)ccc2C#N)cc1F (mixture of isomers) :: 2.3
Cc1ccc(CC(C)(C)NC[C@@H](O)CO[C@H](C)c2ccccc2C2CC3CC2C2C(C(=O)O)C32)cc1F (mixture of isomers) :: 2.4
CC(C)(CC1Cc2ccccc2C1)NC[C@@H](O)COc1cc(C2CC3CC2C2C(C(=O)O)C32)cc(F)c1F (mixture of isomers) :: 2.6
CC(C)(CC1Cc2ccccc2C1)NC[C@@H](O)COc1cc(CCC(=O)O)cc(F)c1F :: 1.5
Cc1ccc(CC(C)(C)NC[C@@H](O)CO[C@H](C)c2ccccc2C2CC3CC2C2C(C(=O)O)C32)cc1Cl (mixture of isomers) :: 2.6

QUERY: Please give the measured logD for this molecule: CC(C)(CC1Cc2ccccc2C1)NC[C@@H](O)COc1cc(C2CC3CC2C2C(C(=O)O)C32)ccc1C#N (mixture of isomers)
RESULT: 2

QUERY: Follow-up item: C[C@@H](OC[C@H](O)CNC(C)(C)Cc1ccc(Cl)cc1F)c1ccccc1C1CC2CC1C1C(C(=O)O)C21 (mixture of isomers)
RESULT: 2.8

###

Measured IC50 values are reported for all entries that follow.
molecular target: Extracellular calcium-sensing receptor (Homo sapiens, UniProt P41180); test: Negative allosteric modulator activity at human recombinant calcium sensing receptor expressed in HEK cells
Sequence (P41180 whole entry): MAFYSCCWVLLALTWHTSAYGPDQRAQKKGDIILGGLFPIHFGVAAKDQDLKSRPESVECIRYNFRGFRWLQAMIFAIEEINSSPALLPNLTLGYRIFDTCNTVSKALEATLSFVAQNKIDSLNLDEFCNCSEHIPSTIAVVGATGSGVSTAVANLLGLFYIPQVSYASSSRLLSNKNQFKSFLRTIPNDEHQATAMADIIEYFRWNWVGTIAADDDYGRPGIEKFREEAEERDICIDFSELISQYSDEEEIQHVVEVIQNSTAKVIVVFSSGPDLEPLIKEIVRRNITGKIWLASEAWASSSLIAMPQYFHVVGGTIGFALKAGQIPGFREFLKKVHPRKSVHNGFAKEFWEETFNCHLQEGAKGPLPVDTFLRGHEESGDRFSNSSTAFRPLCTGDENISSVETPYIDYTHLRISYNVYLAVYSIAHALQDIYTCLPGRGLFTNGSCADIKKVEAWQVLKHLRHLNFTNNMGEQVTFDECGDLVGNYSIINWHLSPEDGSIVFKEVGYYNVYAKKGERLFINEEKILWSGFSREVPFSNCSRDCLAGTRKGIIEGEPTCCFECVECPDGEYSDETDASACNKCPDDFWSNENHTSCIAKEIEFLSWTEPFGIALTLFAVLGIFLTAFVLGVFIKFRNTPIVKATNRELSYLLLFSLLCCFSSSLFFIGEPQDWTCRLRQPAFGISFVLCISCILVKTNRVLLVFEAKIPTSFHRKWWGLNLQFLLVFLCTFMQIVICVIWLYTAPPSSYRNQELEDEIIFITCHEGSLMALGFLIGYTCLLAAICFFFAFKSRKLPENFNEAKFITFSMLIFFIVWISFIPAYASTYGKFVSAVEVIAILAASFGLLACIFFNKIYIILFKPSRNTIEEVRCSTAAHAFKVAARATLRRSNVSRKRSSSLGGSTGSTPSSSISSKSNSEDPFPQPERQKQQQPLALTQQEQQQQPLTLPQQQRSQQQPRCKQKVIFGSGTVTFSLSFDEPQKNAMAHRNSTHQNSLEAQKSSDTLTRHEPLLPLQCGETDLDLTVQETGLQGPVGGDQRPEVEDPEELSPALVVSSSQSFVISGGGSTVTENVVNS

Check out these entries, answers already filled in.
Cc1ccc(CC(C)(C)NC[C@@H](O)CO[C@H](C)c2ccccc2C2CC3CC2C2C(C(=O)O)C32)cc1F (mixture of isomers) :: 25 nM
CC(C)(CC1Cc2ccccc2C1)NC[C@@H](O)COc1cc(C2CC3CC2C2C(C(=O)O)C32)ccc1C#N (mixture of isomers) :: 6 nM
Cc1ccc(CC(C)(C)NC[C@@H](O)COc2cc(C3CC4CC3C3C(C(=O)O)C43)ccc2F)cc1F (mixture of isomers) :: 300 nM

Kindly consider the entry below.
QUERY: Look up IC50: C[C@@H](OC[C@H](O)CNC(C)(C)CC1Cc2ccccc2C1)c1ccccc1C1CC2CC1C1C(C(=O)O)C21 (mixture of isomers)
RESULT: 3500 nM

###

experiment: Intrinsic clearance in rat liver microsomes assessed per mg of protein; type: ADME, Microsome
Class Y: microsomal CLint at least 40 µL/min/mg. Class N: microsomal CLint below 40 µL/min/mg.

Solved entries:
CC(C)(Cc1ccc2ccccc2c1)NC[C@@H](O)COc1cccc(Cl)c1C#N :: Y
CC(C)(CC1Cc2ccccc2C1)NC[C@@H](O)COc1cc(C2CC3CC2C2C(C(=O)O)C32)ccc1C#N (mixture of isomers) :: N
Cc1ccc(CC(C)(C)NC[C@@H](O)CO[C@H](C)c2ccccc2C2CC3CC2C2C(C(=O)O)C32)cc1F (mixture of isomers) :: Y
CC(C)(CC1Cc2ccccc2C1)NC[C@@H](O)COc1cccc(C2CC3CC2C2C(C(=O)O)C32)c1 (mixture of isomers) :: Y
CC(C)(CN1Cc2ccccc2C1=O)NC[C@@H](O)COc1cc(C2CC3CC2C2C(C(=O)O)C32)ccc1C#N (mixture of isomers) :: N
C[C@@H](OC[C@H](O)CNC(C)(C)Cc1ccc(Cl)cc1F)c1ccccc1C1CC2CC1C1C(C(=O)O)C21 (mixture of isomers) :: N

QUERY: Record CC(C)(CC1Cc2ccccc2C1)NC[C@@H](O)COc1cc(C2CC3CC2C2C(C(=O)O)C32)cc(F)c1F (mixture of isomers) ; criterion: microsomal CLint no lower than 40 µL/min/mg. Met?
RESULT: N

###

assay: Intrinsic clearance in human liver microsomes assessed per mg of protein; format: ADME, Microsome
RECORDED ENDPOINT: microsomal CLint (µL/min/mg)
Reply numerically in µL/min/mg, unit not repeated.

Some solved cases for reference:
CC(C)(CC1Cc2ccccc2C1)NC[C@@H](O)COc1cccc(C2CC3CC2C2C(C(=O)O)C32)c1 (mixture of isomers) :: 15
Cc1ccc(CC(C)(C)NC[C@@H](O)COc2cccc(C3CC4CC3C3C(C(=O)O)C43)c2)cc1F (mixture of isomers) :: 23
Cc1ccc(CC(C)(C)NC[C@@H](O)COc2cc(C3CC4CC3C3C(C(=O)O)C43)ccc2F)cc1F (mixture of isomers) :: 20
C[C@@H](OC[C@H](O)CNC(C)(C)Cc1ccc(Cl)cc1F)c1ccccc1C1CC2CC1C1C(C(=O)O)C21 (mixture of isomers) :: 16
CC(C)(CN1Cc2ccccc2C1=O)NC[C@@H](O)COc1cc(C2CC3CC2C2C(C(=O)O)C32)ccc1C#N (mixture of isomers) :: 9

QUERY: What does the data say about its microsomal CLint? Entry: C[C@@H](OC[C@H](O)CNC(C)(C)CC1Cc2ccccc2C1)c1ccccc1C1CC2CC1C1C(C(=O)O)C21 (mixture of isomers)
RESULT: 23

QUERY: Now the molecule Cc1ccc(CC(C)(C)NC[C@@H](O)CO[C@H](C)c2ccccc2C2CC3CC2C2C(C(=O)O)C32)cc1F (mixture of isomers)
RESULT: 35

QUERY: Entry to check: Cc1ccc(CC(C)(C)NC[C@@H](O)CO[C@H](C)c2ccccc2C2CC3CC2C2C(C(=O)O)C32)cc1Cl (mixture of isomers)
RESULT: 33
